Some molecules, each annotated with its measured Ki.
- Assayed system: Sigma non-opioid intracellular receptor 1 (Cavia porcellus, UniProt Q60492)
- Sequence (Q60492 whole entry): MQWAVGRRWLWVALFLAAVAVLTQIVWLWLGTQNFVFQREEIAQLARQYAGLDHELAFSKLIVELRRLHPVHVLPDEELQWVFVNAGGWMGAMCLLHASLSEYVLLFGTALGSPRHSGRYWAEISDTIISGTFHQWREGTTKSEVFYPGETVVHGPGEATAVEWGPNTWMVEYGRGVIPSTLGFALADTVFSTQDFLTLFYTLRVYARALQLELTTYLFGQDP
- Assay info: Displacement of (+)- [3H]pentazocine from sigma 1 receptor expressed in guinea pig brain membrane homogenates by scintillation counting analysis
Report as a plain number; the unit µM is understood.

Worked cases, answers included:
O=C(c1cccnc1)C1CCN([C@@H]2Cc3ccccc3C[C@H]2O)CC1 (racemic); 12.9
Nc1cccc2c1C[C@@H](N1CCC(C(=O)c3cccnc3)CC1)[C@H](O)C2 (racemic); 20.3
Cn1c(C(=O)C2CCN([C@@H]3Cc4ccccc4C[C@H]3O)CC2)cccc1=O (racemic); 2.16
Cc1ccc(C(=O)C2CCN([C@@H]3Cc4ccccc4C[C@H]3O)CC2)cn1 (racemic); 2.12
O=C(c1cccnc1F)C1CCN([C@@H]2Cc3ccccc3C[C@H]2O)CC1 (racemic); 1.3
Cn1ccc(C(=O)C2CCN([C@@H]3Cc4ccccc4C[C@H]3O)CC2)c1 (racemic); 3.04

Given the entry COc1cccnc1C(=O)C1CCN([C@@H]2Cc3ccccc3C[C@H]2O)CC1 (racemic) , report its measured Ki.
21

Ki for CNc1ccc(C(=O)C2CCN(C3Cc4ccccc4CC3O)CC2)cc1 (single isomer, unassigned; (+)) ?
1.17
